Tested on: rat small-intestinal brush border membrane vesicles
Assay: Inhibitory effect on 33PO4 uptake into rat small-intestinal brush border membrane vesicles (rapid filtration method)
Assay type: biochemical, Wistar female rat
Details: 1 µM test compound; 33PO4 uptake into rat small-intestinal BBMVs, 60 seconds
In this section, each of the compounds is paired with its reported Rate of uptake inhibition (%) (1 µM).
Report as a plain number; the unit % is understood.

Please review the entries below; each comes with its answer.
Cc1c(-c2cc(C(F)(F)F)ccc2NC(=O)C2=C(O)[C@H](C(C)(C)C)N(C)N(Cc3ccc(OCCN4CCOCC4)c(F)c3F)C2=O)ncnc1C(F)(F)F: 69
C[C@]12CCCN1N(Cc1cc(Cl)ccc1F)C(=O)C(C(=O)Nc1ccc(C(F)(F)F)cc1-c1cc(C(F)(F)F)ncn1)=C2O: 72
CC1(C)C(O)=C(C(=O)Nc2ccc(C(F)(F)F)cc2-c2cc(C(F)(F)F)ncn2)C(=O)N(Cc2cccc(F)c2F)N1c1ccccc1: 45

Returns the measured Rate of uptake inhibition (%) (1 µM) for the input compound. Input: CCC1(CC)C(O)=C(C(=O)Nc2ccc(C(F)(F)F)cc2-c2ccc(C(F)(F)F)nc2)C(=O)N(Cc2ccc(OCCN3CCOCC3)c(F)c2F)N1C
47

# repeat for COCC(C)(C)N(C)CCOc1ccc(CN2C(=O)C(C(=O)Nc3ccc(C(F)(F)F)cc3-c3cc(C(F)(F)F)ncn3)=C(O)C3(CCC3)N2C)c(F)c1F
55

# repeat for COc1ccc(OC)c(CN2C(=O)C(C(=O)Nc3ccc(C(F)(F)F)cc3-c3ccc(C(F)(F)F)nc3)=C(O)[C@@]3(C)CCCN23)c1
75

====

System: rat small-intestinal brush border membrane vesicles
Test: Inhibitory effect on 33PO4 uptake into rat small-intestinal brush border membrane vesicles (rapid filtration method)
Type: biochemical, Wistar female rat
Settings: 1 µM test compound; 33PO4 uptake into rat small-intestinal BBMVs, 60 seconds
Readout Type: Rate of uptake inhibition (%) (1 µM)
Report as a plain number; the unit % is understood.

Please review the entries below; each comes with its answer.
CC(=O)NCCN(C)CCOc1ccc(CN2C(=O)C(C(=O)Nc3ccc(C(F)(F)F)cc3-c3cc(C(F)(F)F)ncn3)=C(O)C3(CCC3)N2C)c(F)c1F [Example 353]: 26
C[C@]12CCCN1N(Cc1c(F)cc(C#CCCOC[C@H](O)CO)cc1F)C(=O)C(C(=O)Nc1ccc(C(F)(F)F)cc1-c1ccc(C(F)(F)F)nc1)=C2O [Example 145]: 78
CN1[C@@H](C(C)(C)C)C(O)=C(C(=O)Nc2ccc(C(F)(F)F)cc2-c2cc(C(F)(F)F)ncn2)C(=O)N1Cc1ccc(OCCN2CCOCC2)c(F)c1F [Example 264]: 48
C[C@]12CCCN1N(Cc1cccc(F)c1F)C(=O)C(C(=O)Nc1ccc(Br)c(F)c1)=C2O [Example 28]: 72
Cc1c(-c2cc(C(F)(F)F)ccc2NC(=O)C2=C(O)C3(CCC3)N(C)N(Cc3ccc(OCCN4CCOCC4)c(F)c3F)C2=O)ncnc1C(F)(F)F [Example 285]: 62

Okay, next one:
Returns the measured Rate of uptake inhibition (%) (1 µM) for the input compound. Input: COCCN(C)CCOc1ccc(CN2C(=O)C(C(=O)Nc3ccc(C(F)(F)F)cc3-c3cc(C(F)(F)F)ncn3)=C(O)C3(CCC3)N2C)c(F)c1F [Example 13]
58

====

System: rat small-intestinal brush border membrane vesicles
Experiment: Inhibitory effect on 33PO4 uptake into rat small-intestinal brush border membrane vesicles (rapid filtration method)
Format: biochemical, Wistar female rat
Settings: 1 µM test compound; 33PO4 uptake into rat small-intestinal BBMVs, 60 seconds
Readout Type: Rate of uptake inhibition (%) (1 µM)
Report as a plain number; the unit % is understood.

CCOC(=O)CCCCCCN1C(=O)C(C(=O)Nc2ccc(C(F)(F)F)cc2-c2ccc(C(F)(F)F)nc2)=C(O)[C@@]2(C)CCCN12: 65

Returns the measured Rate of uptake inhibition (%) (1 µM) for the input compound. Input: COCCN1CC(Oc2ccc(CN3C(=O)C(C(=O)Nc4ccc(C(F)(F)F)cc4-c4cc(C(F)(F)F)ncn4)=C(O)C4(CCC4)N3C)c(F)c2F)C1
27

# repeat for CN1N(Cc2ccc(OCCOCCNC(=O)[C@@H](O)[C@H](O)[C@@H](O)[C@@H](O)CO)c(F)c2F)C(=O)C(C(=O)Nc2ccc(C(F)(F)F)cc2-c2cc(C(F)(F)F)ncn2)=C(O)C12CCCC2
12

====

Test system: rat small-intestinal brush border membrane vesicles
Assay: Inhibitory effect on 33PO4 uptake into rat small-intestinal brush border membrane vesicles (rapid filtration method)
Assay type: biochemical, Wistar female rat
Settings: 1 µM test compound; 33PO4 uptake into rat small-intestinal BBMVs, 60 seconds
Procedure: The ^33PO4 transport activity of the small-intestinal BBMVs was determined by the rapid filtration method. […] Then, ice-cold buffer C (110 mM NaCl, 1 mM KH2PO4, and 10 mM HEPES (pH 7.5)) was added to each reaction mixture, which was immediately suction-filtered through a Millipore filter. The filter was washed with buffer C, and each sample was then dissolved in a liquid scintillator. The amount of ^33PO4 uptake into BBMVs was measured using a liquid scintillation counter. […]
Met means recorded Rate of uptake inhibition (%) (1 µM) is 70% or above; Not met means it is below 70%.

Before answering, review these 6 worked examples.
CN1N(Cc2cccc(F)c2F)C(=O)C(C(=O)Nc2ccc(Br)c(C(F)(F)F)n2)=C(O)C12CCCC2: Not met
CN1N(Cc2ccc(OCCN3CCOCC3)c(F)c2F)C(=O)C(C(=O)Nc2ccc(Cl)cc2-c2ccc(C(F)(F)F)nc2)=C(O)C12CCCC2: Not met
CN1[C@@H](C(C)(C)C)C(O)=C(C(=O)Nc2ccc(C(F)(F)F)cc2C(F)(F)F)C(=O)N1Cc1ccc(OCCN2CCOCC2)c(F)c1F: Not met
Cc1ncc(-c2cc(C(F)(F)F)ccc2NC(=O)C2=C(O)[C@@]3(C)CCCN3N(Cc3cccc(F)c3F)C2=O)cc1C#N: Not met
COCCN(C)CCOc1ccc(CN2C(=O)C(C(=O)Nc3ccc(C(F)(F)F)cc3-c3cc(C(F)(F)F)ncn3)=C(O)C3(CCCC3)N2C)c(F)c1F: Not met
C[C@]12CCCN1N(Cc1cc(F)cc(F)c1)C(=O)C(C(=O)Nc1cc(F)c(Br)c(F)c1)=C2O: Met

Check the entry CN1N(Cc2ccc(OCCCCCOC[C@H](O)CO)c(F)c2F)C(=O)C(C(=O)Nc2ccc(C(F)(F)F)cc2-c2cc(C(F)(F)F)ncn2)=C(O)C12CCCC2 : does Rate of uptake inhibition (%) (1 µM) equal or exceed 70%?
Not met

# repeat for C[C@]12CCCN1N(Cc1cccc(F)c1F)C(=O)C(C(=O)Nc1ccc(C(F)(F)F)cc1-c1ccc(C(F)(F)F)nc1)=C2O
Met

# repeat for C[C@]12CCCN1N(Cc1ccc(F)c(F)c1)C(=O)C(C(=O)Nc1ccc(C(F)(F)F)cc1-c1ccc(C(F)(F)F)nc1)=C2O
Met

# repeat for COCCOCCOCCCCCCCCN1C(=O)C(C(=O)Nc2ccc(C(F)(F)F)cc2-c2cc(C(F)(F)F)ncn2)=C(O)[C@@]2(C)CCCN12
Not met

# repeat for COC1(C)CN(CCOc2ccc(CN3C(=O)C(C(=O)Nc4ccc(C(F)(F)F)cc4-c4cc(C(F)(F)F)ncn4)=C(O)C4(CCC4)N3C)c(F)c2F)C1
Not met

====

In this section, each of the compounds is paired with its reported Rate of uptake inhibition (%) (1 µM).
Tested on: rat small-intestinal brush border membrane vesicles
Test: Inhibitory effect on 33PO4 uptake into rat small-intestinal brush border membrane vesicles (rapid filtration method)
Type: biochemical, Wistar female rat
Details: 1 µM test compound; 33PO4 uptake into rat small-intestinal BBMVs, 60 seconds
Report as a plain number; the unit % is understood.

Please review the entries below; each comes with its answer.
CCC1(CC)C(O)=C(C(=O)Nc2ccc(Cl)cc2-c2ccc(C(F)(F)F)nc2)C(=O)N(Cc2ccc(OCCN3CCOCC3)c(F)c2F)N1C: 40
C[C@]12CCCN1N(Cc1c(Cl)cc(OCCN3CCOCC3)cc1Cl)C(=O)C(C(=O)Nc1cnc(C(F)(F)F)nc1-c1ccc(C(F)(F)F)nc1)=C2O.Cl: 71
C[C@]12CCCN1N(Cc1cccc(F)c1F)C(=O)C(C(=O)Nc1ccc(Br)cc1-c1ccc(Cl)nc1)=C2O: 82

Returns the measured Rate of uptake inhibition (%) (1 µM) for the input compound. Input: C[C@]12CCCN1N(Cc1cc(F)cc(F)c1)C(=O)C(C(=O)Nc1ccc(C(F)(F)F)cc1-c1ccc(C(F)(F)F)nc1)=C2O
78

# repeat for CN(C[C@H](O)[C@@H](O)[C@H](O)[C@H](O)CO)C(=O)CCCOc1ccc(CN2C(=O)C(C(=O)Nc3ccc(C(F)(F)F)cc3-c3cc(C(F)(F)F)ncn3)=C(O)C3(CCCC3)N2C)c(F)c1F
29

# repeat for COc1cc(-c2cc(C(F)(F)F)ccc2NC(=O)C2=C(O)C(C)(C)N(C)N(Cc3cccc(F)c3F)C2=O)cnc1C#N
79

Cited source for all entries: patent EP2975030B1
